Listed next: entries and their corresponding pIC50.
Target: HDAC6 (Homo sapiens)
Sequence (Q9UBN7 1-1215): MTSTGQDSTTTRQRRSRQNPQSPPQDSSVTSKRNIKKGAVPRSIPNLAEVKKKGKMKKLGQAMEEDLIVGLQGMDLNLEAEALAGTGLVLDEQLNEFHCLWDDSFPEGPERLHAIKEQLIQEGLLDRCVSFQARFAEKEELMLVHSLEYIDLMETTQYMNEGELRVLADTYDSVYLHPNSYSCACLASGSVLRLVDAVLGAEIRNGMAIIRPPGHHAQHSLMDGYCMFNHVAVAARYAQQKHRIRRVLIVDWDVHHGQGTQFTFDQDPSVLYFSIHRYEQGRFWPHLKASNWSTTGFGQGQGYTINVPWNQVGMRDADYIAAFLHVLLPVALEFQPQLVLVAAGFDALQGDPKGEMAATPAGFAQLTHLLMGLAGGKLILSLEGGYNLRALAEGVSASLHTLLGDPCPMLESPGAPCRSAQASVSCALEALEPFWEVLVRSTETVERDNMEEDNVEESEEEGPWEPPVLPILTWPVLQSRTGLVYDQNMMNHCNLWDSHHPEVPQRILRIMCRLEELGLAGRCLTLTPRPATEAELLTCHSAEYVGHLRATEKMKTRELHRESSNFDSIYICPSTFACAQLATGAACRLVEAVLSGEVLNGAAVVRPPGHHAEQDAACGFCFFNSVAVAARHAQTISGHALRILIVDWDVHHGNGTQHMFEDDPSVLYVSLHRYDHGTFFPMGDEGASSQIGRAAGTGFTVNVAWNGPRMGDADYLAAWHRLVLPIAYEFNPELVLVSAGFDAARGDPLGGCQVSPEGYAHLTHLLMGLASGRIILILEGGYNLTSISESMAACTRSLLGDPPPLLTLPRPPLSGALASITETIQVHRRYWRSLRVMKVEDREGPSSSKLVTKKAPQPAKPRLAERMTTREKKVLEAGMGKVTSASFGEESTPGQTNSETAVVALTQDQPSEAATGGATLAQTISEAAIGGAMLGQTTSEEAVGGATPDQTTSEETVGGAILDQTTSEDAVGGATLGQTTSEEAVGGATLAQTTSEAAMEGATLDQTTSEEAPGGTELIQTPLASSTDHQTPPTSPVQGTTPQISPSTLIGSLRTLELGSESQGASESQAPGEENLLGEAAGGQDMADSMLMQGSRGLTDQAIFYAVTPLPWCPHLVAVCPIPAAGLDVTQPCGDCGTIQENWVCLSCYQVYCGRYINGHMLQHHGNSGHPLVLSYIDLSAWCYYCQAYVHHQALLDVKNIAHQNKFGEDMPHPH
Assay: In vitro HDAC6 inhibition
Format: biochemical
Conditions: HDAC6, Table 1; read-out: IC50
pIC50: −log10 of the molar value.
metric: pIC50

[[record]]
molecule = "O=C(NO)c1ccc(NCc2csc3ccc(Br)cc23)cc1 [Compound 7b]"
result_number = 7.43

[[record]]
molecule = "O=C(NO)c1ccc(NCc2csc3ccc(-c4ccccc4)cc23)cc1 [Compound 7c]"
result_number = 6.51

[[record]]
molecule = "O=C(NO)c1ccc(N(Cc2ccccc2)Cc2csc3cc(Br)ccc23)cc1 [Compound 14a]"
result_number = 5.68

[[record]]
molecule = "Cc1cc(C(=O)NO)ccc1NCc1csc2ccccc12 [Compound 7d]"
result_number = 5.62

[[record]]
molecule = "O=C(NO)c1ccc(NCc2csc3cc(Br)ccc23)cc1 [Compound 13a]"
result_number = 7.19

[[record]]
molecule = "O=C(NO)c1ccc(NCc2csc3cc(-c4ccccc4)ccc23)cc1 [Compound 13b]"
result_number = 6.18

[[record]]
molecule = "O=C(NO)c1ccc(NCc2csc3ccccc23)cc1 [Compound 7a]"
result_number = 7.85

[[record]]
molecule = "O=C(NO)c1ccc(NCc2c[nH]c3ccccc23)cc1 [Compound 18]"
result_number = 6.70

[[record]]
molecule = "O=C(NO)c1ccc(N(Cc2ccccc2)Cc2csc3ccc(Br)cc23)cc1 [Compound 8b]"
result_number = 6.07

[[record]]
molecule = "O=C(NO)c1ccc(N(Cc2ccccc2)Cc2csc3ccccc23)cc1 [Compound 8a]"
result_number = 6.33


From: patent US9993459B2
